Species on record: Homo sapiens
Test: Selectivity ratio of Ki for human adenosine A3 receptor to Ki for human adenosine A2A receptor
Here the recorded Ratio Ki is given for each entry.

In: Param item = CC(C)(C)OC(=O)NCCNc1nc(N)n2nc(-c3ccco3)nc2n1 ; retrieve measured Ratio Ki.
Out: 36

In: Param item = Nc1nc(N2CCN(C(=O)c3ccc([N+](=O)[O-])cc3)CC2)nc2nc(-c3ccco3)nn12 ; retrieve measured Ratio Ki.
Out: 40

In: Param item = CC(C)(C)OC(=O)NCCNc1nc(NCCNC(=O)OC(C)(C)C)n2nc(-c3ccco3)nc2n1 ; retrieve measured Ratio Ki.
Out: 1.9

In: Param item = Nc1nc(O)nc2nc(-c3ccco3)nn12 ; retrieve measured Ratio Ki.
Out: 50

New cases:
In: Param item = CC(C)(C)OC(=O)N1CCN(c2nc(N)n3nc(-c4ccco4)nc3n2)CC1 ; retrieve measured Ratio Ki.
Out: 400

In: Param item = Nc1nc(N2CCN(Cc3cccc(Cl)c3)CC2)nc2nc(-c3ccco3)nn12 ; retrieve measured Ratio Ki.
Out: 200

In: Param item = CC(C)(C)CC(=O)N1CCN(c2nc(N)n3nc(-c4ccco4)nc3n2)CC1 ; retrieve measured Ratio Ki.
Out: > 900

In: Param item = Nc1nc(N2CCN(C(=O)Cc3ccc(Cl)cc3)CC2)nc2nc(-c3ccco3)nn12 ; retrieve measured Ratio Ki.
Out: 32

In: Param item = Nc1nc(N2CCN(Cc3ccc(Br)cc3)CC2)nc2nc(-c3ccco3)nn12 ; retrieve measured Ratio Ki.
Out: 300

###

Target: Adenosine receptor A1 (Rattus norvegicus) (UniProt P25099)
Sequence (P25099 whole entry): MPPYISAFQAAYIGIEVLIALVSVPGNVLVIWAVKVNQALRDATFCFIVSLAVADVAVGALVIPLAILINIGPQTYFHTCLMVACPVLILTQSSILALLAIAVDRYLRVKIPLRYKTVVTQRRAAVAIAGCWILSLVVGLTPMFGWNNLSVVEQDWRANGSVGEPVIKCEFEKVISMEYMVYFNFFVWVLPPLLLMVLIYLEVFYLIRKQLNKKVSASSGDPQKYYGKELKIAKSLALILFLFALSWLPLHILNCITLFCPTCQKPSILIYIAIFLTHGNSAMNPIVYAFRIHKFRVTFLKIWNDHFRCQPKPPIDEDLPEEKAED
Test: Antagonist activity at rat adenosine A1 receptor
Format: functional
Here the recorded INH is given for each entry.
Use nM as the unit, but write only the number.

In: Query for Adenosine receptor A1 (Rattus norvegicus) (UniProt P25099): what INH does the record show for Nc1nc(Oc2ccccc2)nc2nc(-c3ccco3)nn12 ?
Out: 2720

In: Query for Adenosine receptor A1 (Rattus norvegicus) (UniProt P25099): what INH does the record show for Nc1nc(NCCc2ccc(O)cc2)nc2nc(-c3ccco3)nn12 ?
Out: 2040

In: Query for Adenosine receptor A1 (Rattus norvegicus) (UniProt P25099): what INH does the record show for Nc1nc(N2CCN3C[C@@H](COc4cccc(F)c4)CC[C@H]3C2)nc2nc(-c3ccco3)nn12 ?
Out: 3300

New cases:
In: Query for Adenosine receptor A1 (Rattus norvegicus) (UniProt P25099): what INH does the record show for CSc1nc(NC(=O)C(c2ccccc2)c2ccccc2)n2nc(-c3ccco3)nc2n1 ?
Out: 557

###

Target: Adenosine receptor A3 (Homo sapiens) (UniProt P0DMS8)
Sequence (whole entry): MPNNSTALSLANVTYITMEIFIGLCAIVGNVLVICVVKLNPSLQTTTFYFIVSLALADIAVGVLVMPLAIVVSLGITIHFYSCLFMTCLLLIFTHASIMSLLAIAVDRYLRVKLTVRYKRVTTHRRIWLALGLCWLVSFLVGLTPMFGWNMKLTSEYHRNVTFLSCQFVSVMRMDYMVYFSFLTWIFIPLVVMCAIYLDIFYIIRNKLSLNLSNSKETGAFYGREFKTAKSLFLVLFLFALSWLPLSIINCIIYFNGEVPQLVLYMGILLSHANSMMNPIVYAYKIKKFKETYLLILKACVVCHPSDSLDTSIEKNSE
Test: Displacement of [I125]I-AB-MECA from human adenosine A3 receptor expressed in CHO cells at 10 uM by scintillation counting
Format: cell-based
Reported endpoint: Activity (%)
Use % as the unit, but write only the number.

Consider the following illustrative entries.
In: Param item = Nc1nc(O)nc2nc(-c3ccco3)nn12 ; retrieve measured Activity.
Out: 43.9

In: Param item = Nc1nc(N2CCN(Cc3ccccc3)CC2)nc2nc(-c3ccco3)nn12 ; retrieve measured Activity.
Out: 71.9

In: Param item = CC(C)(C)OC(=O)NCC1CCC(CNc2nc(N)n3nc(-c4ccco4)nc3n2)CC1 (stereo unspecified) ; retrieve measured Activity.
Out: 75.5

In: Param item = NCCNc1nc(N)n2nc(-c3ccco3)nc2n1 ; retrieve measured Activity.
Out: 30.8

In: Param item = CC(C)(C)OC(=O)N1CCN(c2nc(N)n3nc(-c4ccco4)nc3n2)CC1 ; retrieve measured Activity.
Out: 56.6

New cases:
In: Param item = Nc1nc(N2CCN(C(=O)C(Cl)Cl)CC2)nc2nc(-c3ccco3)nn12 ; retrieve measured Activity.
Out: 33.6

In: Param item = Nc1nc(N2CCN(C(=O)c3cccc4ccccc34)CC2)nc2nc(-c3ccco3)nn12 ; retrieve measured Activity.
Out: 31.1

In: Param item = Nc1nc(N2CCN(Cc3ccc(Cl)cc3)CC2)nc2nc(-c3ccco3)nn12 ; retrieve measured Activity.
Out: 66.8

In: Param item = CC(C)(C)OC(=O)NCCCCCNc1nc(N)n2nc(-c3ccco3)nc2n1 ; retrieve measured Activity.
Out: 68.6

In: Param item = Nc1nc(N2CCN(C(=O)Cc3ccccc3)CC2)nc2nc(-c3ccco3)nn12 ; retrieve measured Activity.
Out: 64.5

In: Param item = Nc1nc(NC(=O)c2ccccc2)n2nc(-c3ccco3)nc2n1 ; retrieve measured Activity.
Out: 67.2

Hello, the source for this data is ChEMBL document CHEMBL1926574, in case you need it.
